- assay target: Androgen AR receptor (Homo sapiens, UniProt P10275)
- Construct: expressed in transfected cells; host or cells: NIH3T3 cells
- Sequence (P10275 1-920): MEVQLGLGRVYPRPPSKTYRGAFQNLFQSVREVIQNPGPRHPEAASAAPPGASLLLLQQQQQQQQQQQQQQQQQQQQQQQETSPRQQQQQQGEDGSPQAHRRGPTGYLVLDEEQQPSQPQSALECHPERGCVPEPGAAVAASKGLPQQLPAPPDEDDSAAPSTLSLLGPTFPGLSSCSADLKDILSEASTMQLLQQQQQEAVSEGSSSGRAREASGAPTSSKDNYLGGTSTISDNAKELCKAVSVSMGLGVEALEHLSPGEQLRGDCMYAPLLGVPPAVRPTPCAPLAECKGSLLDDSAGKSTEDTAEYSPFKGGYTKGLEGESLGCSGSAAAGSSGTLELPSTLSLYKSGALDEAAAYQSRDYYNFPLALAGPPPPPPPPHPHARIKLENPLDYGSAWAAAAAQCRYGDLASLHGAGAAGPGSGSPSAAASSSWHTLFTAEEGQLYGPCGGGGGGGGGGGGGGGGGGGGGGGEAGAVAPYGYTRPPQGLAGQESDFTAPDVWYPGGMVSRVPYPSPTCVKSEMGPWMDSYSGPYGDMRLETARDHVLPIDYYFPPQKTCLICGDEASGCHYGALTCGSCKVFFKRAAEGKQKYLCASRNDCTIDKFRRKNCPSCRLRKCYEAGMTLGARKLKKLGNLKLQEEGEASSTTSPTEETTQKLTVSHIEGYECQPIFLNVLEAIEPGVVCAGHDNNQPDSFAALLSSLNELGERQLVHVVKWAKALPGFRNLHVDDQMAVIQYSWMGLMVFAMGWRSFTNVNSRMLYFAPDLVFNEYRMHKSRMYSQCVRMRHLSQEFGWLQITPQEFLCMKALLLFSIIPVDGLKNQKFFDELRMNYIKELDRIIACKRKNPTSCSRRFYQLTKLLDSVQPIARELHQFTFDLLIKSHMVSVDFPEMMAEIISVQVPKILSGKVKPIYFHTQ
- experiment: Receptor Selection and Amplification Technology (R-SAT) functional receptor assay
- Format: cell-based
Where a name gives a salt, the structure may show the parent alone.
measurement label: EC50 (nM)
Give the value in nM but do not write nM after it.

compound	EC50 (nM)
Cc1c(N2[C@@H]3CC[C@H]2C[C@@](C)(O)C3)ccc(C#N)c1Cl [198RL26, hydrochloride]	1.58

Field: next compound
Per the record, Cc1c(N2[C@@H]3CC[C@H]2C[C@@H](O)C3)ccc(C#N)c1Cl [165RL90, hydrochloride] has EC50 of 2
